target_or_test_system: Cytochrome P450 1B1 (Homo sapiens, UniProt Q16678)
Sequence (Q16678 whole entry): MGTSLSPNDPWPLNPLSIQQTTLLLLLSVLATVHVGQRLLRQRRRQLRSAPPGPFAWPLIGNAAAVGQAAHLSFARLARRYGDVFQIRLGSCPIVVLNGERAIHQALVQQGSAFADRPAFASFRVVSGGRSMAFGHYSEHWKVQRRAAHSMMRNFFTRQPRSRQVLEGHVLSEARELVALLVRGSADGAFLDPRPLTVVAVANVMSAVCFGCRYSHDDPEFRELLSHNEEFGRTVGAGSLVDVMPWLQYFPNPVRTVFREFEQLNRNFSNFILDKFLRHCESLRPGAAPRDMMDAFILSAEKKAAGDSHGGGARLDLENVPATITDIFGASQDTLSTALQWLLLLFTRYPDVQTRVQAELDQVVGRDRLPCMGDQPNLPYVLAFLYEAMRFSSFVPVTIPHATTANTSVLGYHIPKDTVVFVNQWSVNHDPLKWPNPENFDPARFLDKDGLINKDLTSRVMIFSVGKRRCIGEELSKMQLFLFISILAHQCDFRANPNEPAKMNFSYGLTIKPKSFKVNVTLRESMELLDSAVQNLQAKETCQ
procedure_details: Inhibition of human CYP1B1 expressed in human HEK293 cells using 7-ethoxyresorufin as substrate preincubated for 30 mins followed by substrate additon and measured after 60 mins by fluorescence based assay
Type: ADME, cell-based
property: IC50 (µM)

Below: 2 compounds and their reported IC50.
In [3]: df
Out[3]:
                                   molecule  property  unit_spec  measured_number
0  COc1c(-c2cc(-c3ccccc3)nn2-c2ccc(C#N)cc2)ccc2occc12      IC50         µM             25.5
1      COc1c(-c2ccccc2)oc2c(ccc3occc32)c1=O      IC50         µM             0.03

(I) O=c1cc(-c2ccc3c(c2)OCO3)oc2c1ccc1occc12
(II) COc1c(C(=O)/C=C(\O)c2ccccc2)ccc2occc12
Query block: Could you determine which record has the numerically smaller IC50? Candidates: I and II Pick one; state its label.
Result block: II
(II: 4.5 µM, I: 6.8 µM)

---

target_or_test_system: Cytochrome P450 1B1 (Homo sapiens, UniProt Q16678)
procedure_details: Inhibition of human CYP1B1 expressed in human HEK293 cells using 7-ethoxyresorufin as substrate preincubated for 30 mins followed by substrate additon and measured after 60 mins by fluorescence based assay
Type: ADME, cell-based
property: IC50 (µM)

>>> print(df.to_string())
                                   molecule  property  unit_spec  measured_number
0  COc1c(-c2ccc3c(c2)OCO3)oc2c(ccc3occc32)c1=O      IC50         µM             1.06

(1) O=c1cc(-c2cccc(O)c2)oc2c1ccc1occc12
(2) COc1c(-c2cc(-c3ccccc3)n(-c3ccc(C#N)cc3)n2)ccc2occc12
Query block: Could you determine which record has the numerically smaller IC50? Candidates: 1 and 2 Pick one; state its label.
Result block: 1

---

target_or_test_system: Cytochrome P450 1A1 (Homo sapiens)
Sequence (P04798 whole entry): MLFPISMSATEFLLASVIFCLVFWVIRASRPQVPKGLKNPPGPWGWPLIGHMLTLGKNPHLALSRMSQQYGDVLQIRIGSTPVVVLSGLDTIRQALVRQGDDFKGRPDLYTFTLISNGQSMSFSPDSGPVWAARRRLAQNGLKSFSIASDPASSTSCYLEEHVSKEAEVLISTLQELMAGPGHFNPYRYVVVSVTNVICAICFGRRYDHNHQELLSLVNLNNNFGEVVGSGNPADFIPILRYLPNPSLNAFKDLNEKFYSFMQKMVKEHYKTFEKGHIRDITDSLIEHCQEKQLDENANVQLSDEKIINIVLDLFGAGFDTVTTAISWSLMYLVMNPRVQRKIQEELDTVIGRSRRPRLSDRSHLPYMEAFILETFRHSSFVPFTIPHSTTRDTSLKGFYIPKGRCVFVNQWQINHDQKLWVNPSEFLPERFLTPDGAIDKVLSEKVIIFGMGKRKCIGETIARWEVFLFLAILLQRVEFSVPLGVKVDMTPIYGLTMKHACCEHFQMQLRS
procedure_details: Inhibition of human CYP1A1 expressed in human HEK293 cells using 7-ethoxyresorufin as substrate preincubated for 30 mins followed by substrate additon and measured after 60 mins by fluorescence based assay
Assay type: cell-based
property: IC50 (µM)

Below: 2 molecules and their reported IC50.
In [3]: df
Out[3]:
                                   molecule               target_or_test_system  measured_number
0  COc1c(-c2ccc3c(c2)OCO3)oc2c(ccc3occc32)c1=O  Cytochrome P450 1A1 (Homo sapiens)             0.02
1   O=c1cc(-c2ccc3c(c2)OCO3)oc2c1ccc1occc12  Cytochrome P450 1A1 (Homo sapiens)              6.4

(I) COc1c(C(=O)/C=C(\O)c2ccccc2)ccc2occc12
(II) COc1c(-c2cc(-c3ccccc3)nn2-c2ccc(C#N)cc2)ccc2occc12
Query block: Could you determine which record has the numerically smaller IC50? Candidates: I and II Pick one; state its label.
Result block: I
